biological target: T1, Cynomolgus/Rhesus macaque FOLR1 Protein, His Tag (ACRO, F01-C52H8) (cynomolgus, UniProt A0A2K5U044 25-233); assay: ELISA, supernatant diluted 1x
T1 construct: also called cynomolgus FOLR1 protein; not shown: His tag
T1 sequence (A0A2K5U044 entry or part of it): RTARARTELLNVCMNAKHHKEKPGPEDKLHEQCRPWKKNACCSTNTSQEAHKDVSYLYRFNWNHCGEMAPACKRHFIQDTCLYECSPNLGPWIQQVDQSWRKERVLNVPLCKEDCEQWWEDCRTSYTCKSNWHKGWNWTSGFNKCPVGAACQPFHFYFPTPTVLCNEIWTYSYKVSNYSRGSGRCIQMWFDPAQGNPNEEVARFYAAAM
// classify: if (OD450 < 1) fulfilled else not fulfilled

Record excerpt, results attached:
| binder | class-assignment |
| --- | --- |
| F26 (antibody, V domains shown, also called clone F26; anti-FOLR1 antibody F26) VH: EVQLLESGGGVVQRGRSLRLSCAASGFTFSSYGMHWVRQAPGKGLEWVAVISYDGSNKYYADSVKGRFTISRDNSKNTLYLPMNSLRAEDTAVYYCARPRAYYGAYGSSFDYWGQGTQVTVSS VL: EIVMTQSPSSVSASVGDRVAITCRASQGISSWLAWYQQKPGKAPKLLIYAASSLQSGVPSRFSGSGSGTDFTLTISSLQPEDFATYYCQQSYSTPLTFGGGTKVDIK | not fulfilled |
| F138 (antibody, V domains shown, also called clone F138; anti-FOLR1 antibody F138) VH: EVQLLESGGGVVQPGRSLRLSCAASGFTFSSYGMHWVRQAPGKGLEWVAVISYDGSNKYYADSVKGRFTISTHNSKNTLYLQMNSLRAEDTAVYYCARPRAYYGAYGSSFDYWGQGTQVTVSS VL: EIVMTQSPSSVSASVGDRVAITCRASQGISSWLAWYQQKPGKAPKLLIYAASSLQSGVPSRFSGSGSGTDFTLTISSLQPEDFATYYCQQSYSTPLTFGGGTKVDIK | not fulfilled |
| F8 (antibody, V domains shown, also called clone F8; anti-FOLR1 antibody F8) VH: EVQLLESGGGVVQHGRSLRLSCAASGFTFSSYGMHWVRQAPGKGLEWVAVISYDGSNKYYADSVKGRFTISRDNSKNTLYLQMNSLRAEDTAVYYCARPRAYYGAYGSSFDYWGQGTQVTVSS VL: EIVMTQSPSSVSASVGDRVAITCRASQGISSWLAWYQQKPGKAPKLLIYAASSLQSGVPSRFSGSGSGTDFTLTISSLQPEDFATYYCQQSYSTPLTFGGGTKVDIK | fulfilled |

Ask | Is 1 strictly greater than the binder's reported OD450? binder: F1 (antibody, V domains shown, also called clone F1; anti-FOLR1 antibody F1) VH: EVQLLESGGGVVQPGRSLRLSCAASGFTFSSYGMHWVRQAPGKGLEWVAVISYDGSNKYYADSVKGRFTISRDNSKNTLYLQMNSLRAEDTAVYYCARPRAYYGAYGSSFDYWGQGTQVTVSS VL: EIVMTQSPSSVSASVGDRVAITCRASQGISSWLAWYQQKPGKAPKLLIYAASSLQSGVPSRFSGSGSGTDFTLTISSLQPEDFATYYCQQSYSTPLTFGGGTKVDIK
Reply | not fulfilled

Ask | Is 1 strictly greater than the binder's reported OD450? binder: F131 (antibody, V domains shown, also called clone F131; F131 mAb) VH: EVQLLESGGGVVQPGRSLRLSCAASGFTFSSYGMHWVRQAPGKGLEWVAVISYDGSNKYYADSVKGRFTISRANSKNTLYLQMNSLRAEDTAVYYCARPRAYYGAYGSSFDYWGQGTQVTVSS VL: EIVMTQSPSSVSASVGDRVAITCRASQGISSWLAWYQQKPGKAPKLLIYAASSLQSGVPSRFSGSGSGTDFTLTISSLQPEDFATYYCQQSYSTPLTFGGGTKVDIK
Reply | not fulfilled
